Values were extracted from patent US20040259818A1.

target: α2 and/or α3 subunit of the human GABAA receptor; assay: [3H]-flumazenil displacement binding assay, α2 and/or α3 subunit; details: displacement of [3H]-flumazenil; human GABAA receptors stably expressed in Ltk- cells; read-out: binding affinity (Ki) for the α2 and/or α3 subunit

smiles record: CCn1ncnc1COc1nn2c(-c3ccccc3F)nnc2cc1C(C)(C)C
Ki: < 1 nM
